System: A431
Assay: filipin (cholesterol) integrated intensity within LBPA endosomes, Z-score; higher = more cholesterol in LBPA endosomes
Details: compound concentration in added solution (µM; 5 µl added to 20 µl cells): 10; 18 h
Counter-ions that a name gives are not always drawn.
filipin (z-score) reference
I'd appreciate a reply containing only the number, no unit.

Value of filipin (z-score) reported for the compound `CC[C@H](C)C(=O)O[C@H]1C[C@@H](C)C=C2C=C[C@H](C)[C@H](CC[C@@H]3C[C@@H](O)CC(=O)O3)[C@H]21` is -0.696

Kindly note the recorded filipin (z-score) for O=C(c1ccc(OCCN2CCCCC2)cc1)c1c(-c2ccc(O)cc2)sc2cc(O)ccc12 [Raloxifene hydrochloride] , which is 3.61

// filipin (z-score) lookup, compound = `CC(=O)N[C@@H](CC(C)C)C(=O)O` , result: -0.425

Briefly, filipin (z-score) measured for CNCCC(Oc1ccccc1OC)c1ccccc1 (centres undefined) [Nisoxetine hydrochloride] : -0.0689

Quick note, filipin (z-score) for COc1cccc(N(C)C(=S)Oc2ccc3c(c2)CCCC3)n1 [Liranaftate] landed at -0.0958

filipin (z-score) for `O=C(O)CCCC[C@@H]1SC[C@@H]2NC(=O)N[C@@H]21` is -0.471

Measured filipin (z-score) of `Clc1ccccc1C(c1ccccc1)(c1ccccc1)n1ccnc1` : -0.276

Query COc1ccccc1OCC(O)COC(N)=O (centres undefined) yields filipin (z-score) of -0.492

###

Test system: A431
Experiment: filipin (cholesterol) integrated intensity within LBPA endosomes, Z-score; higher = more cholesterol in LBPA endosomes
Details: compound concentration in added solution (µM; 5 µl added to 20 µl cells): 10; 18 h
Structures can show the parent of a compound that is named as a salt.
outcome measure: filipin (z-score)
Answer as a number with no unit attached.

Measured filipin (z-score) of NCc1ccccc1CC(=O)N[C@@H]1C(=O)N2C(C(=O)O)=C(CSc3nnnn3CC(=O)O)CS[C@H]12 [Ceforanide] : -0.513

Per the record, CCN(CC)C(C)CN1c2ccccc2Sc2ccccc21 (stereo not drawn) [Ethopropazine hydrochloride] has filipin (z-score) of 2.11

Further cases:
Kindly note the recorded filipin (z-score) for `CO[C@H]1/C=C/O[C@@]2(C)Oc3c(C)c(O)c4c(O)c(c5c(nc6cc(C)ccn65)c4c3C2=O)NC(=O)/C(C)=C\C=C\[C@H](C)[C@H](O)[C@@H](C)[C@@H](O)[C@@H](C)[C@H](OC(C)=O)[C@@H]1C` , which is -0.307

###

System: A431
Assay: whole-cell filipin (free cholesterol) integrated intensity, Z-score; higher = more cholesterol staining
Conditions: compound concentration in added solution (µM; 5 µl added to 20 µl cells): 10; 18 h
Counter-ions that a name gives are not always drawn.
Give 1 (yes) when the value for whole-cell filipin (z-score) is at least 0.3. Give 0 (no) when it is less.

Exam item: Could you verify whether the entry CCCCOc1ccc(C(=O)CCN2CCCCC2)cc1 [Dyclonine hydrochloride] shows whole-cell filipin (z-score) of no less than 0.3?
Marked response: 1 (yes)

Exam item: Please tell me: is the compound CC(C)N1CCN(c2ccc(OCC3COC(Cn4cncn4)(c4ccc(Cl)cc4Cl)O3)cc2)CC1 (stereo not drawn) [Terconazole] at or over 0.3 in terms of whole-cell filipin (z-score)?
Marked response: 1 (yes)

Exam item: Is whole-cell filipin (z-score) for O=C(O)c1cn(C2CC2)c2cc(N3CCNCC3)c(F)cc2c1=O [Ciprofloxacin hydrochloride hydrate] at or above 0.3?
Marked response: 0 (no)

Next:
Exam item: Given the entry COc1ccc(C(=O)NCc2ccc(OCCN(C)C)cc2)cc1OC [Itopride] , answer whether its whole-cell filipin (z-score) meets or surpasses 0.3.
Marked response: 0 (no)

Exam item: Does the compound Cc1ccc(C)c(OCCCC(C)(C)C(=O)O)c1 [Gemfibrozil] have recorded whole-cell filipin (z-score) that is 0.3 or more?
Marked response: 0 (no)

Exam item: Does the compound CC(=O)S[C@@H]1CC2=CC(=O)CC[C@]2(C)[C@H]2CC[C@@]3(C)[C@@H](CC[C@@]34CCC(=O)O4)[C@H]12 [Spironolactone] have recorded whole-cell filipin (z-score) that is 0.3 or more?
Marked response: 0 (no)

Exam item: Please check the record NCCc1ccc(O)c(O)c1 [Dopamine hydrochloride] and state if its whole-cell filipin (z-score) is at or above 0.3.
Marked response: 0 (no)

###

Test system: A431
Assay: filipin (cholesterol) integrated intensity within LBPA endosomes, Z-score; higher = more cholesterol in LBPA endosomes
Conditions: compound concentration in added solution (µM; 5 µl added to 20 µl cells): 10; 18 h
Where a name gives a salt, the structure may show the parent alone.
Tick 1 (yes) if filipin (z-score) is -0.4 or greater. Tick 0 (no) if filipin (z-score) is less than -0.4.

Example entries begin here.
Exam item: Given the entry `COc1ccc2c(c1)c(CC(=O)OCC(=O)O)c(C)n2C(=O)c1ccc(Cl)cc1` , answer whether its filipin (z-score) meets or surpasses -0.4.
Marked response: 0 (no)

Exam item: Record `COC(=O)[C@H]1[C@H]2C[C@@H]3c4[nH]c5cc(OC)ccc5c4CCN3C[C@H]2C[C@@H](OC(=O)c2cc(OC)c(OC)c(OC)c2)[C@@H]1OC` ; criterion: filipin (z-score) no lower than -0.4. Met?
Marked response: 1 (yes)

Exam item: Does the reported filipin (z-score) for `N[C@@H](Cc1cc(I)c(Oc2ccc(O)c(I)c2)c(I)c1)C(=O)O` fall at or above the -0.4 mark?
Marked response: 0 (no)

Exam item: Form field: filipin (z-score) at least -0.4? Entry: CN1CCC(=C2c3ccccc3Sc3ccccc32)CC1 [Pimethixene maleate]
Marked response: 1 (yes)

Exam item: Dear colleague, could you confirm whether NC[C@@H]1O[C@H](O[C@H]2[C@@H](O)[C@H](O[C@@H]3[C@@H](O)[C@H](N)C[C@H](N)[C@H]3O[C@H]3O[C@H](CO)[C@@H](O)[C@H](O)[C@H]3N)O[C@@H]2CO)[C@H](N)[C@@H](O)[C@@H]1O [Paromomycin sulfate] has filipin (z-score) at or above -0.4?
Marked response: 0 (no)

Now for a further compound.
Exam item: Decide: filipin (z-score) of CCC(=O)OCC(=O)[C@@]1(OC(=O)CC)[C@H](C)C[C@H]2[C@H]3[C@H]([C@@H](O)C[C@@]21C)[C@@]1(C)C=CC(=O)C=C1C[C@H]3Cl [Alclometasone dipropionate] >= -0.4?
Marked response: 1 (yes)

###

Test system: HeLa MZ
Assay: filipin (cholesterol) integrated intensity within LBPA endosomes, Z-score; higher = more cholesterol in LBPA endosomes
Settings: compound concentration in added solution (µM; 5 µl added to 20 µl cells): 10; 18 h
Structures can show the parent of a compound that is named as a salt.
Kindly return satisfied if reported filipin (z-score) is no lower than -0.4; return not satisfied if it is lower.

Exam item: API: above_or_equal(metric=filipin (z-score), cutoff=-0.4) for item CC(=O)/N=c1/sc(S(N)(=O)=O)nn1C [Methazolamide]
Marked response: not satisfied

Exam item: Evaluate CC(COc1ccccc1)NC(C)C(O)c1ccc(O)cc1 (configuration not stated) [Isoxsuprine hydrochloride] : filipin (z-score) at minimum -0.4?
Marked response: satisfied

###

Here, each record is paired with measured LBPA endosome anti-LBPA integrated intensity (z-score) data.
System: A431
Experiment: LBPA endosome anti-LBPA integrated intensity (sum per cell), Z-score; higher = more LBPA staining
Details: compound concentration in added solution (µM; 5 µl added to 20 µl cells): 10; 18 h
Counter-ions that a name gives are not always drawn.

LBPA endosome anti-LBPA integrated intensity (z-score) reading for COCCOC(=O)C1=C(C)NC(C)=C(C(=O)OC(C)C)C1c1cccc([N+](=O)[O-])c1 (stereo unspecified) [Nimodipine] : -0.345

Lab note: measured LBPA endosome anti-LBPA integrated intensity (z-score) of CCOC(=O)C1=C(C)NC(C)=C(C(=O)OCC)C1c1ccccc1/C=C/C(=O)OC(C)(C)C [Lacidipine] was 0.359

Next:
The measured LBPA endosome anti-LBPA integrated intensity (z-score) associated with NS(=O)(=O)c1cc(C(=O)O)cc(N2CCCC2)c1Oc1ccccc1 [Piretanide] reads -0.606

Kindly note the recorded LBPA endosome anti-LBPA integrated intensity (z-score) for CCCN[C@H]1CCc2nc(N)sc2C1 [Pramipexole] , which is -0.166

Note to self: LBPA endosome anti-LBPA integrated intensity (z-score) recorded for COc1ccc(C(Cl)=C(c2ccc(OC)cc2)c2ccc(OC)cc2)cc1 [Chlorotrianisene] was -0.163

LBPA endosome anti-LBPA integrated intensity (z-score) measured on O=C(COc1ccc(Cl)cc1)N1CCN(Cc2ccc3c(c2)OCO3)CC1 [Fipexide hydrochloride] = -0.365

Memo: C[N+]1(CCCCC[N+]2(C)CCCC2)CCCC1 [Pentolinium bitartrate] , reported LBPA endosome anti-LBPA integrated intensity (z-score): -0.453

// recorded LBPA endosome anti-LBPA integrated intensity (z-score) for Cc1oncc1C(=O)Nc1ccc(C(F)(F)F)cc1 [Leflunomide] : -0.572

Record summary for CCC(C)(C)C(=O)O[C@H]1C[C@@H](C)C=C2C=C[C@H](C)[C@H](CC[C@@H]3C[C@@H](O)CC(=O)O3)[C@H]21 [Simvastatin] : reported LBPA endosome anti-LBPA integrated intensity (z-score) = -0.965

Consider CC=CC(=O)N(CC)c1ccccc1C [Crotamiton] . Its measured LBPA endosome anti-LBPA integrated intensity (z-score) is -0.66

Per the record, NC(N)=Nc1nc(CSCC/C(N)=N/S(N)(=O)=O)cs1 [Famotidine] has LBPA endosome anti-LBPA integrated intensity (z-score) of -0.5

Measured LBPA endosome anti-LBPA integrated intensity (z-score), COc1cc(N)c(Cl)cc1C(=O)NC1CCN(CCCOc2ccc(F)cc2)CC1OC (stereo unspecified) [Cisapride] : 0.467

compound CC1(C)S[C@@H]2[C@H](NC(=O)[C@H](NC(=O)N3CCNC3=O)c3ccccc3)C(=O)N2[C@H]1C(=O)O [Azlocillin sodium salt] , LBPA endosome anti-LBPA integrated intensity (z-score) observed: -0.496

Field LBPA endosome anti-LBPA integrated intensity (z-score) (entry CN(C)c1nc(N(C)C)nc(N(C)C)n1 [Altretamine] ) reads -0.54

Reported LBPA endosome anti-LBPA integrated intensity (z-score) ( CC[C@H]1OC(=O)C[C@@H](O)[C@H](C)[C@@H](O[C@@H]2O[C@H](C)[C@@H](O[C@H]3C[C@@](C)(O)[C@@H](O)[C@H](C)O3)[C@H](N(C)C)[C@H]2O)[C@@H](CC=O)C[C@@H](C)C(=O)/C=C/C(C)=C/[C@@H]1CO[C@@H]1O[C@H](C)[C@@H](O)[C@@H](OC)[C@H]1OC [Tylosin] ) = -0.392

For record CS(=O)(=O)c1ccc([C@@H](O)[C@@H](CF)NC(=O)C(Cl)Cl)cc1 [Florfenicol] the listed LBPA endosome anti-LBPA integrated intensity (z-score) is -0.565
